Target: human recombinant CYP3A4 (Homo sapiens, UniProt P08684)
Sequence (P08684 whole entry): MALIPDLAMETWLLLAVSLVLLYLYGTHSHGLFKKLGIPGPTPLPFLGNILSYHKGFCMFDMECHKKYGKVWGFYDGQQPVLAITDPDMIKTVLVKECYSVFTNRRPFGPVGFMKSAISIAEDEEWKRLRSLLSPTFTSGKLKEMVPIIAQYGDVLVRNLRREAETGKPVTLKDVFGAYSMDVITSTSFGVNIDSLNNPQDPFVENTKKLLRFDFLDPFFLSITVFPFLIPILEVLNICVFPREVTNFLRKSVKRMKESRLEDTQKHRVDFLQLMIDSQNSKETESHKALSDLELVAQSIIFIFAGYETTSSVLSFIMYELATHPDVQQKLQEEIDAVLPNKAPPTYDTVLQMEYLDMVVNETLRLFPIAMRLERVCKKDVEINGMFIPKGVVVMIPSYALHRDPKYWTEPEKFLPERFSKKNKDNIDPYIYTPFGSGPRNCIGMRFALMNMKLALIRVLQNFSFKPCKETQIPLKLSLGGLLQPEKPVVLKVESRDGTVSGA
Test: Inhibition of dibenzylfluorescein metabolism by cDNA-expressed CYP3A4 (fluorimetric)
Details: read-out: IC50 (concentration that yields 50% inhibition of the metabolism of dibenzyl-fluorescein), dibenzyl-fluorescein 5 · 10^−7 M
experimental.endpoint: IC50 (µM)
The figure you give is taken to be in µM; do not add the unit.

Entry COc1ccc(CCN(CCCC(C#N)(c2ccc(OC)c(OC)c2)C(C)C)CC(F)(F)F)cc1OC (stereo not shown) , IC50 reported as 1.93

* * *

Biological target: human recombinant CYP2A6 (Homo sapiens, UniProt P10635)
Sequence (P10635 whole entry): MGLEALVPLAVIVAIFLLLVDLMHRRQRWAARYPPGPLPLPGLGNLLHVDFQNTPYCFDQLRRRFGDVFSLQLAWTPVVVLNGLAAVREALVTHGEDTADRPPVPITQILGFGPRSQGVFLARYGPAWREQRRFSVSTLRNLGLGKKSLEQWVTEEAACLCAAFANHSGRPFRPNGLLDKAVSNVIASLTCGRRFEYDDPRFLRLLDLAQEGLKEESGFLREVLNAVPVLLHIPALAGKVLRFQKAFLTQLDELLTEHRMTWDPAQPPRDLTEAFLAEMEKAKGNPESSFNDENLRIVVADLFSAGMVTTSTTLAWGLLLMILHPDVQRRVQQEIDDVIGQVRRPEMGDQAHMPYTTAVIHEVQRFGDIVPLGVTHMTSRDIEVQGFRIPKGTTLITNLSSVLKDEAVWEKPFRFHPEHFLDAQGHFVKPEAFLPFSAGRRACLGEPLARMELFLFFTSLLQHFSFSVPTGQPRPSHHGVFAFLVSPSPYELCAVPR
Assay: biochemical
experimental.endpoint: IC50

The recorded IC50 for Br.COc1ccc2c(c1)[C@@]13CCCC[C@H]1[C@@H](C2)N(C)CC3.O [Dextromethorphan, hydrobromide monohydrate] is 1820 nM

* * *

Target: human recombinant CYP2A6 (Homo sapiens)
Conditions: recombinant enzyme
experimental.endpoint: pIC50
Here pIC50 is given on a logarithmic scale as minus log10 of the concentration in mol/L.

Data point: CN1CC[C@]23CCCC[C@H]2[C@H]1Cc1ccc(OCC(F)(F)F)cc13 ; pIC50 = 6.37

Hello, the source for this data is patent US20090005270A1, in case you need it.
